Reference source for all entries: the supplement of paper PMC7877785

assay: self-splicing fitness, log relative to wild type (ln ratio); higher = more splicing; Tetrahymena group I intron in knt gene, E. coli kanamycin selection, DiMSum; sequences stand for … in CUCUCU…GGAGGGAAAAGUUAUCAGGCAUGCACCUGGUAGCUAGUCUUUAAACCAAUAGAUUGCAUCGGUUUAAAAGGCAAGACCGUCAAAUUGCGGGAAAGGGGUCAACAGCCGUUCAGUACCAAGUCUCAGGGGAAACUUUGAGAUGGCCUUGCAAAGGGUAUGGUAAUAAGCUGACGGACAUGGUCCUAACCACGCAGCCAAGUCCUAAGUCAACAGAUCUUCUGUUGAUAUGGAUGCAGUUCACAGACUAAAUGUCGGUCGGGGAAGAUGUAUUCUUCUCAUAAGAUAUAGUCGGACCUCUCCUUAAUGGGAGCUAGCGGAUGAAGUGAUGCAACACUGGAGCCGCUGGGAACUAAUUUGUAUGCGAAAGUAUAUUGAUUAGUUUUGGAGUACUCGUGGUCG; settings: 30 °C;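 further: selection with 25 µg/mL kanamycin versus none on LB agar overnight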
Decide using self-splicing fitness (ln): a value greater than or equal to -1 is 1 (yes), a smaller one is 0 (no).

macromolecule_sequence: UCUCAGCAAUAUUACGGGUU
class: 0 (no)

Reported self-splicing fitness (ln) at or above -1? CGCUAGCAAUAUUACGGCAG
0 (no)

Reported self-splicing fitness (ln) at or above -1? ACACAGCAAUAUUACGAACG
1 (yes)

Reported self-splicing fitness (ln) at or above -1? GAGAAGCAAUAUUACGAGGU
0 (no)

Reported self-splicing fitness (ln) at or above -1? GCCAAGCAAUAUUACGCACU
1 (yes)

Reported self-splicing fitness (ln) at or above -1? CUCAAGCAAUAUUACGAUUC
0 (no)

Reported self-splicing fitness (ln) at or above -1? CAUCAGCAAUAUUACGAAAU
0 (no)

Reported self-splicing fitness (ln) at or above -1? UACAAGCAAUAUUACGUGCG
0 (no)

Reported self-splicing fitness (ln) at or above -1? GUCCAGCAAUAUUACGGAAA
1 (yes)

Reported self-splicing fitness (ln) at or above -1? UCCUAGCAAUAUUACGUAGU
0 (no)

Reported self-splicing fitness (ln) at or above -1? CUGGAGCAAUAUUACGAUAU
0 (no)

Reported self-splicing fitness (ln) at or above -1? AAGAAGCAAUAUUACGGCGU
1 (yes)

Reported self-splicing fitness (ln) at or above -1? UGGAAGCAAUAUUACGUUAA
1 (yes)

Reported self-splicing fitness (ln) at or above -1? CACCAGCAAUAUUACGGAUA
0 (no)

Reported self-splicing fitness (ln) at or above -1? CUGAAGCAAUAUUACGUGUG
1 (yes)
